# methodDescription: Food effect clinical study in Chinese patients with CML (NCT03882281)
# Format: in vivo, human
# runParameters: human, plasma, oral, 30 mg, Chinese CML patients, fed, 30 mg SD
quantityKind: Cmax

Kindly note the recorded Cmax for Cc1ccc(C(=O)Nc2ccc(CN3CCN(C)CC3)c(C(F)(F)F)c2)cc1C#Cc1cnc2[nH]ncc2c1 [olverembatinib, Olverembatinib] , which is 10.8 ng/mL

====

# methodDescription: Food effect clinical study in Chinese patients with CML (NCT03882281)
# Type: in vivo, human
# runParameters: human, plasma, oral; Chinese CML patients, fasting, 30 mg SD; read-out: Tmax Obs. (median)
quantityKind: Tmax (h)
Give just the number in h; leave the unit off.

# compound Cc1ccc(C(=O)Nc2ccc(CN3CCN(C)CC3)c(C(F)(F)F)c2)cc1C#Cc1cnc2[nH]ncc2c1 [olverembatinib, Olverembatinib] ; its Tmax = 6
